Entry source: the nanobody polyreactivity screen of Harvey et al. (2022)

Experiment: yeast display, Sf9 membrane polyspecificity reagent, FACS + sequencing; frameworks hold sequencing errors
measurement.type: polyreactivity (PSR sort gate)

residue.string | polyreactivity (PSR sort gate)
QVQLVESGGGLVQAGGSLRLSCAASGRTFSNYAMGWYRQAPGKEREFVAGIRYNGGSTYYADSVKGRFTISRDNAKNTVYLQMNSLKPEDTAVYYCAAERWFYRSKFDYWGQGTQVTVSS | high polyreactivity
QVQLVESGGGLVQAGGSLRLSCAASGSTFGSNAMGWYRQAPGKERELVAAISSIGGSTYYADSVKGRFTISRDNAKNTVYLQMNSLKTEDTAVYYCAAKYYGRYYRYLGSSFDYWGQGTQVTVSS | high polyreactivity
QVQLVESGGGLVQAGGSLRLSCAASGSIFSYYAMAWYRQAPGKERELVAAITWSGTRTYYADSVKGRFTISRDNAKNTVYLQMNSLKPEDTAVYYCAADSSIRDDYWGQGTQVTVSS | low polyreactivity
QVHLVESGGGLVQAGGILRLSCAASGFIFLQYTMGWYRPAPGKERELVAGISWSGDSTYYADSVKGRFTISRDNAKNTVYLQMNSLKPEDTAVYYCNADWRAAGSDFAFGNPQLYDDWGQGSQVTVSS | low polyreactivity
QVQLVESGGGLVMAGGRLRLSCAASGSTFGYYAMGWYRQAPGKERELVAVITTRVGSTYYADSVKGRFTFSRDNAKNTVYLQMNSLKPEDTAVYYCNASGRTRSYSGSFSKHYYWGQGTQVTVSS | high polyreactivity
QVQLVESGGGLVQAGGSLRLSCAASGSFLEPYSMGRYRQATGKERELVAAISFSDTSTYYADSVKGRFTISRDNAKNTVYLQMNSLKQEDTAVYYCAATYVLYWGYEYDYWGQGTQVTVSS | high polyreactivity
QVQLVESGGGLVQAGGSLRLSCAASGYTIYYYAMGWYRQAPGKERELVAVITSRGTRTYYADSVQGRFTISRDNAKNTVYLQMNSLKPEDTAVYYCNKARGVAYDWGQGTQVTVSS | high polyreactivity
QVQLVESGGGLVQAGGSLRLSCAASGRTFLGYTMGWYRQAPGKESEFVAAITFSGDSTYYADSVKGRFTISRDNAKNTVYLQMNSLKPEDTAVYYCAARIKYYTYLFYYWGQGTQVTVSS | high polyreactivity
QVQLVESGGGIVQAGGSLRLSCAPSGFIFRVYTMGWYRQAPGKERELVAAISYRGGRTYYADSVKGRFTISRDNAKNSVYLQMNILKPEDTAVYYCAAERVNREFDYWGQGTLVTVSS | high polyreactivity
QVQLVESGGGLVQAGGSLRLSCAASGFTFAAYAMGWSRQAPGKERELVAAISRSGGSTYYADSVKGRFTISRDNAKNTVYLQMNSLKPEDTAVYYCAAYGWPKYNYWGQGTQVTVSS | high polyreactivity

Form field polyreactivity (PSR sort gate), entry QVQLVESGGGLVQAGGSLRLSCAAYGSTFVLYGMGWYRQAPGKEWELVAAISTSGGRTYYADSEKGRFTISRDNAKNSVSLQMNSLKPEDTAVYYCAALTYVAHYDEYWGQGTQVTVSS : low polyreactivity

Form field polyreactivity (PSR sort gate), entry QVQLVESGGGIVKAGGSLGISCAASGRIFDYYDMLWYRQAPGKERELVAAITQSGGSTNYADSVKGRFTISRDNAKNTVYLQMNSLKPEDTAVYYCAGVGYYTKRRFGYWGQGTQVTVSS : high polyreactivity

Form field polyreactivity (PSR sort gate), entry QVQLVESGGGLVQAGGSLRLSCAASGSTFQSKAMGWYRQAPGKERELVAAINSGTSTYYADSVKGRFTISRDNAKNTVYLQMNSLKPEDTAVYYCAADGIWGEYYYSELGDYDYWGQGTQVTVSS : low polyreactivity

---

Assay: yeast display, Sf9 membrane polyspecificity reagent, FACS + sequencing; frameworks hold sequencing errors
measurement.type: polyreactivity (PSR sort gate)

# count of solved cases: 5
residue.string | polyreactivity (PSR sort gate)
QVQLVESGGGLVQAGGSLRLSSAASGLTFPIYAMVWYTQAPGKEREFVAVITTSGGSTYYADSVKGRFTISRDNAKNTVFLQMNSLKPEDTSVYYCNARRIRHYYWGQGTQVTVSS | high polyreactivity
QVQLVESGGGLVQAGGSLRLSCAAAGRTFGDYDMGWYRQAPGKERELVAAITSDGTTYYADSVKGRFTISRDNAKNTVYLQMNSLKPEDTAVYYCAADYWYVSWYDYWGQGTQVTVSS | low polyreactivity
QVQLVESGGGLVQAGGSLRLSCAASGFYNTMGWYRQAPGKERELVAAISTGGITNYADSVKGRFTISRDNSKNTFYFQMKSLIPEDTAVYYCAADGYSTVSSTYDYWGQGTQVTVSS | low polyreactivity
QVHLVESGGGLVQAGGSLRLSCAASGNTFGRYAMGWYRQAPGKEREFVAAIRWRGATTYYADSVKGRFTISRDNAKNTVDLQMNSLKPEDTAVYYCAAYYWGQGTGFDYWGQGTQVTVSS | high polyreactivity
QVQLVESGGGLVQAGCSRRLRCAASGFTFRLYAMGWSRQAPGKERELVAATTSGGSTYYADSVKGRFTISRDNAKNTVYLQMNSLKPEDTAVYYCNKLYRTSVEYDYWGQGTLVTVSS | high polyreactivity

Form field polyreactivity (PSR sort gate), entry QVQLVDSGGGLVQAGGSLRLICAASGSISSYYAMVWYRQAPGKERELVAAITSGGRTYYADSVKGRFTISRDNAKNTVYLQMNSLKPEDTAVYYCNARTARNPIKGRASYYWGQGTQVTVSS : high polyreactivity

Form field polyreactivity (PSR sort gate), entry QVQLHESGGGLVQAGGSLRLICAASGSISILQSMGWYRQAPGKERELVAGINWGATTYYADRVKGRLTTSRDYAKNTVYLQMNSLKPEATAVYYCAVPTYYTNPLLYWGQGTQVTVSS : low polyreactivity

Form field polyreactivity (PSR sort gate), entry QVQLVESGGGLVQAGGSLRLSCAASGRTFYSNAMGWYRQAPGKERELVAAITFGGGSTYYADSVKGRFTISRDNAKNTVYLQMNSLKPEDTAVYYCAAEGYKYRFYYWGQGTQVTVSS : low polyreactivity

Form field polyreactivity (PSR sort gate), entry QVQLVESGGGLVQAGGSLRLSCAASGSTFSGNAMGWYRQAPGKERELVAAITRSGSRTYYADSVKGRFTISRDNAKNTVYLQMNSLKPEDTAVYYCAKVGRTGDDYYYWGQGTQVTVAS : high polyreactivity

Form field polyreactivity (PSR sort gate), entry QVQLVESGGGLVQAGGSLRLSCAASGSTFRFYAMGWYRQAPGKERELVAVISFNDGSTYYADSVKGRFTISRDNAKNTVYLQMNSLKPEDTAVYYCATDELDSWWYEYEYWGQGTQVTVSS : low polyreactivity

Form field polyreactivity (PSR sort gate), entry QVQLVESGGGLVQAGGSLRLSCAASGSIFDVYAMGWYRQAPGKERELVAAITGGGSTYYADSVKGRFTISRDNAKNTVYLQMNSLKPEDTAVYYCNADRRRRSGGFAGWHFQRNDYWGQGTQVTVSS : low polyreactivity

---

Assay: yeast display, Sf9 membrane polyspecificity reagent, FACS + sequencing; frameworks hold sequencing errors
measurement.type: polyreactivity (PSR sort gate)

# count of solved cases: 6
residue.string | val
QVQLVESGGGLVQAGGSLRLSCAASGITFYRYAMGWYRQAPGKDRELVAVISSGGSTNYADSVKGRFTISRDNAKNTVYLQMNSLKPEDTAVFYCNAVSTRFRVRTSDYWGQGTKVTVSS | high polyreactivity
QVQLVESGGGLVQAGGSLRLSCAASGRIFWYYAMGWYRQAPGKERELVAAITKSGGSTYYADSVKGRFTISRDYAKNTVYLQMNSLKPEDTAVYYCAAPTWTRSSFDYWGQGTQVTVSS | high polyreactivity
QVQLVESGGGLDQAGASLRLSCPASGRTFNANVMGWYRQAPGKERELVAAISTGGSTNYADSVKGRFTISRDNAKNTVYLQMNSLKPEDTAVYYCAAAIRVPQGGYYYWGQGTQVTVSS | low polyreactivity
QVQLVESGGGLVQAGGSLRLSCAASGFTFHGNAMGWYRQAPGKERELVAVISSSGASTYYADSVKGRFTISRDNAKNTVYLQMNSLKPEDTAVYYCAKVSSPLLYVSSDYDYWGQGTQVTVSS | high polyreactivity
QVQLVESGGGLVQAGGSLRLSCADSGFSIWWYDMGWYRQAPGKERELVAAITADGGDTYYADSVKGRFTISRDYANHTDYLQMNSLKPEDTAVYYCAAEYDVYGYYYWGQGTQVTVSS | high polyreactivity
QVHLVESGGGLVQAGGSLRLSCAASGFIFYYYAMGWYRQAPGKERELVASISAIGGGTYYADSVNGRFTISRDNAKNTVYLQMNSLKPEDTAVYYCDPDGDGWWWSYVDRYDYWGQGTQVTVSS | low polyreactivity

Form field polyreactivity (PSR sort gate), entry QVQLVESGGGLVQAGGSLRLSCAASGRTFWSNAMGWYRQAPGKERELVAAISTGAGSTYYADSVKGRFTISRDNAKNTVYLQMNSLKPEDTAVYYCAAVYNGALYNYYYWGEGTQVTVSS : high polyreactivity
